The reported measurements were obtained from ChEMBL document CHEMBL1201862.

- Tested on: 786-0
- test details: NCI tumour cell line growth inhibition, 48 h
Structures can show the parent of a compound that is named as a salt. The source made the active and inactive calls. Cut-off read from the data, not from the text of the source: active = GI50 up to about 1.1 µM and inactive = higher.
property measured: GI50

Sample `CCO/C=N\C1=C(C#N)SC2=N/C(=C\c3ccc(OC)cc3)C(=O)N21` — what was its GI50?
40.6 µM (inactive)

Sample COC(=O)C1=C(C(=O)OC)C2(OC(C)=O)c3ccccc3-c3ccccc3C12 (configuration not stated) — what was its GI50?
4.23 µM (inactive)

Sample `CC(=O)N1CC(=O)NC1=S` — what was its GI50?
> 100 µM (inactive)

Sample `O=C(Cn1ccnc1[N+](=O)[O-])c1ccccc1` — what was its GI50?
> 100 µM (inactive)

Sample CN(CC#N)C1CCCC[C@H]1O (some centres not stated) — what was its GI50?
> 100 µM (inactive)

Sample `O=C1CC[C@@H](S(=O)(=O)c2ccccc2)[C@H](/C=C/c2ccccc2)O1` — what was its GI50?
> 100 µM (inactive)

Sample `CCOC(=O)NC(=O)c1c[nH]c(=O)[nH]c1=O` — what was its GI50?
> 100 µM (inactive)

Sample CN(C)CC1CC/C(=C\c2ccc3c(c2)OCO3)C1=O (configuration not stated) — what was its GI50?
6.85 µM (inactive)

Sample OC(CNc1ccccn1)c1ccccc1 (configuration not stated) [PHENYRAMIDOL HYDROCHLORIDE] — what was its GI50?
> 100 µM (inactive)

Sample `CCOP(=O)(OCC)/C(C#N)=C/c1ccnc2ccccc12` — what was its GI50?
20.4 µM (inactive)

Sample `COc1cc2c3cc1Oc1cc(ccc1O)C[C@@H]1c4c(cc(OC)c(O)c4Oc4ccc(cc4)C[C@@H]3N(C)CC2)CC[N+]1(C)C` — what was its GI50?
55.3 µM (inactive)

Sample `CC[C@H](C)[C@H]1NC(=O)C(C(C)=O)=C1O` — what was its GI50?
98.6 µM (inactive)

Sample `C=CCNC(=S)N/N=C1\C(=O)N(CN2CCOCC2)c2ccc([N+](=O)[O-])cc21` — what was its GI50?
15.6 µM (inactive)

Sample `CC(C)CCC1(CCN)C(=O)NC(=O)NC1=O` — what was its GI50?
> 100 µM (inactive)

Sample COc1cccc(NC(=O)CC(=O)N2N=C(n3ccc4ccccc43)CC2c2ccccc2)c1 (configuration not stated) — what was its GI50?
> 100 µM (inactive)

Sample `COc1cc2nc(-c3cccs3)nc(N3CCN(c4ccccc4)CC3)c2cc1OC` — what was its GI50?
> 100 µM (inactive)

Sample COC(=O)c1ccccc1CC1Cc2ccc3c(c2C1=O)CCCC3 (configuration not stated) — what was its GI50?
35.2 µM (inactive)

Sample `CSc1ccc(NC(=S)NN(C)C)cc1` — what was its GI50?
> 10 µM (inactive)

Sample `CC1=C(C)C(=O)C(C2=C(C3=CC(=O)C(C)=C(C)C3=O)C(=O)c3ccccc3C2=O)=CC1=O` — what was its GI50?
1.88 µM (inactive)

Sample `Clc1ccccc1NN(Cc1ccccn1)c1ccccc1Cl` — what was its GI50?
16.9 µM (inactive)

Sample `Nc1nnc(NC(=O)C2=NS(=O)(=O)c3cc(S(N)(=O)=O)c(Cl)cc3N2)[nH]1` — what was its GI50?
> 100 µM (inactive)

Sample `COc1ccc(/C=C2\OC(=O)C(Cl)=C2c2ccc(OC)c(Cl)c2)cc1` — what was its GI50?
15.4 µM (inactive)

---

- Test system: XF498
- test details: NCI tumour cell line growth inhibition, 48 h
Active and inactive are the calls of the source. No stated cut-off is given here; in the data, active = GI50 up to about 1.1 µM and inactive = higher.
Field: GI50. Provide a value for each of the molecules that follow.

Give XF498 GI50 for `Cc1cc([N+](=O)[O-])ccc1Sc1c2ccccc2nc2ccccc12`
17.5 µM (inactive)

Give XF498 GI50 for `COc1c(C)c2c(c3c1c(=O)c1ccccc1n3C)C=CC(C)(C)O2`
24.9 µM (inactive)

Give XF498 GI50 for `N#Cc1cccc(/C=N/N/C(N)=N/O)c1`
23.8 µM (inactive)

Give XF498 GI50 for `NNC(=S)N/N=C/C(=C/Nc1ccccc1)[N+](=O)[O-]`
> 100 µM (inactive)

Give XF498 GI50 for `CC(=O)N1CC(=O)NC1=S`
> 100 µM (inactive)

Give XF498 GI50 for CC1=C(CO)C(=O)OC(C(C)C2CCC3C4CC5OC56C(O)C(N5CC5)=CC(=O)C6(C)C4CCC23C)C1 (centres undefined)
5.3 µM (inactive)

Give XF498 GI50 for `COc1ccc(Nc2nc3c(N)cc(C(F)(F)F)cc3nc2-c2ccccc2)cc1OC`
14.8 µM (inactive)

Give XF498 GI50 for `CCOc1ccc2nc(NC(=O)c3c/c(=N\NC(=O)C[N+](C)(C)C)c4ccc(O)cc4o3)sc2c1`
2.83 µM (inactive)

Give XF498 GI50 for CCC12CCCN(Cc3ccccc3)C1c1c(n(C)c3ccccc13)C(CO)C2 (centres undefined)
43.3 µM (inactive)

Give XF498 GI50 for `CN(C)CCS/C(=N\c1ccccc1)N1C=COC=C1`
31.2 µM (inactive)

Give XF498 GI50 for O=C(O)CCC(=O)OCN1C(=O)C2C3C=CC(C2C1=O)C1C2C(=O)N(COC(=O)CCC(=O)O)C(=O)C2C31 (centres undefined)
> 100 µM (inactive)

Give XF498 GI50 for `CCOC(=O)NC(=O)c1c[nH]c(=O)[nH]c1=O`
> 100 µM (inactive)

Give XF498 GI50 for `Cc1cccc(NC(=O)c2c(N)[n+]([O-])c3ccccc3[n+]2[O-])c1`
11.4 µM (inactive)

Give XF498 GI50 for Cc1ccc2oc(=O)c3c(O)c4cccc(OC5OC(C)C6O[C@@H](c7ccccc7)OC6C5OC5OC(C)C(O)C(O)C5O)c4c4oc(=O)c1c2c34 (some centres undefined)
0.0486 µM (active)

Give XF498 GI50 for COC(=O)C(=O)C(C(=O)C(=O)Nc1cc(Cl)c(Cl)cc1Cl)c1nc2ccc([N+](=O)[O-])cc2nc1O (centres undefined)
7.1 µM (inactive)

Give XF498 GI50 for `CC(=O)N/C(=C\c1cccc([N+](=O)[O-])c1)c1nc2ccc3c(c2[nH]1)C(=O)c1ccccc1C3=O`
52.5 µM (inactive)

Give XF498 GI50 for C/C(=N\N)C(CN(C)C)C(c1ccccc1)c1c(O)c2ccccc2oc1=O (centres undefined)
36.4 µM (inactive)

Give XF498 GI50 for `Cc1cccc(NC(=O)c2cccc([N+](=O)[O-])c2O)c1C`
20.3 µM (inactive)

Give XF498 GI50 for `Cc1ccc(C)c(NC(=O)CCc2n[nH]c(=S)o2)c1`
> 100 µM (inactive)

---

Field: GI50. Provide a value for each of the compounds that follow.
- System: OVCAR-5
- test details: NCI tumour cell line growth inhibition, 48 h
The source made the active and inactive calls. Rule as the data show it: active = GI50 up to about 1.1 µM and inactive = higher.

Sample `CCOC(=O)CC(=O)ON(C)C(C)=O` — what was its GI50?
> 100 µM (inactive)

Sample `CNC(=O)OCc1c(CO)nc(SC)n1C` — what was its GI50?
> 100 µM (inactive)

Sample `CSc1cc(Cl)c(C)cc1S(=O)(=O)NC(=O)NNc1ccc(F)cc1` — what was its GI50?
> 100 µM (inactive)

Sample `CCCCCCCCCCCCCP(=O)(O)O` — what was its GI50?
> 100 µM (inactive)

Sample O=C(NC(CS)C(=O)O)c1c2ccccc2nc2ccccc12 (configuration not stated) — what was its GI50?
> 100 µM (inactive)

Sample `N[C@H](CCC(=O)NCP(=O)(O)O)C(=O)O` — what was its GI50?
> 100 µM (inactive)

Sample `O=[N+]([O-])c1ccc(Cc2nc3cc4ccccc4cc3[nH]2)cc1C(F)(F)F` — what was its GI50?
14.4 µM (inactive)

Sample CCc1cn(C2CC(CO)C(CO)S2)c(=O)[nH]c1=O (configuration not stated) — what was its GI50?
> 100 µM (inactive)

Sample `COc1ccc(N(CC(=O)O)N=O)cc1` — what was its GI50?
> 100 µM (inactive)

Sample N#Cc1ccc(C2ON=C(c3ccccc3)N2C23CC4CC(CC(C4)C2)C3)cc1 (configuration not stated) — what was its GI50?
> 10 µM (inactive)

Sample `COc1c(C)c2c(c3c1c(=O)c1ccccc1n3C)C=CC(C)(C)O2` — what was its GI50?
29.2 µM (inactive)

Sample `COc1ccc(Nc2nc3c(N)cc(C(F)(F)F)cc3nc2-c2ccccc2)cc1OC` — what was its GI50?
64.7 µM (inactive)

---

Field: GI50. Provide a value for each of the compounds that follow.
- Test system: M14
- test details: NCI tumour cell line growth inhibition, 48 h
Calls of active or inactive are those of the source. Rule as the data show it: active = GI50 up to about 1.1 µM and inactive = higher.

Sample CC1(C)OC2OC(/C=C/[N+](=O)[O-])C3OC(C)(C)OC3C2O1 (stereo unspecified) — what was its GI50?
12.3 µM (inactive)

Sample `O=C1/C(=C(/Br)I)c2ccccc2-c2ccccc21` — what was its GI50?
9.95 µM (inactive)

Sample `COC(=O)C1(C(=O)OC)CC2=C(S(=O)(=O)c3ccccc3)C[C@@H](C#N)[C@H]2C1` — what was its GI50?
> 100 µM (inactive)

Sample `Cc1cccc(NC(=O)c2c(N)[n+]([O-])c3ccccc3[n+]2[O-])c1` — what was its GI50?
12 µM (inactive)

Sample `[N-]=[N+]=Nc1cc(=O)n(-c2ccccc2)c2ccccc12` — what was its GI50?
> 100 µM (inactive)

Sample CCc1cn(C2CC(CO)C(CO)S2)c(=O)[nH]c1=O (stereo unspecified) — what was its GI50?
> 100 µM (inactive)

Sample COc1ccc(C[N+]23C(CC[C@H]2c2ccccc2)CC[C@H]3c2ccccc2)cc1 (stereo partly specified) — what was its GI50?
12.9 µM (inactive)

Sample CC(C)Cc1ccc(C(C)/C=C2\CCC(CN3CCCC3)C2=O)cc1 (stereo unspecified) — what was its GI50?
13.8 µM (inactive)

Sample `O=C1/C(=C/c2cccc3ccccc23)Cc2ccccc21` — what was its GI50?
59.2 µM (inactive)

Sample `COc1cc(OC)c2nc(C)c(CCCl)c(Cl)c2c1` — what was its GI50?
> 100 µM (inactive)

Sample O=NC1c2cccc3cccc(c23)C1N=O (stereo unspecified) — what was its GI50?
12 µM (inactive)
